B1: Calcium-binding protein 2, residues 155 to 219; numbered along this chain, Q9NPB3 (parent)
chain: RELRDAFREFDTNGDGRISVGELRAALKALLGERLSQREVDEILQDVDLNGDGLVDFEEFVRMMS

variants of: B1; assay: abundance fitness (aPCA) (normalised: wild type 0, dead -1); higher = more abundant; growth selection in yeast, the domain comes from the species named; details: Homo sapiens
Rule: abundance fitness under -0.3 gives criterion not met, otherwise criterion met.

Sequence Variant	Class Name
G32N	criterion met
D11Q	criterion not met
I43H	criterion met
D46M	criterion not met
V40T	criterion met
L30Q	criterion met
I18Y	criterion not met
R34L	criterion met
R17Y	criterion met
Q37M	criterion met
S19I	criterion not met
E2C	criterion not met
L3N	criterion not met
E33P	criterion met
